Here, each record is paired with measured inhibition at 0.1 µM data.
Target: ETB receptor (Sus scrofa, UniProt P35463)
Construct: The plasma membrane of porcine lung; from tissue; host or cells: porcine lung plasma membrane
Sequence (P35463 27-443): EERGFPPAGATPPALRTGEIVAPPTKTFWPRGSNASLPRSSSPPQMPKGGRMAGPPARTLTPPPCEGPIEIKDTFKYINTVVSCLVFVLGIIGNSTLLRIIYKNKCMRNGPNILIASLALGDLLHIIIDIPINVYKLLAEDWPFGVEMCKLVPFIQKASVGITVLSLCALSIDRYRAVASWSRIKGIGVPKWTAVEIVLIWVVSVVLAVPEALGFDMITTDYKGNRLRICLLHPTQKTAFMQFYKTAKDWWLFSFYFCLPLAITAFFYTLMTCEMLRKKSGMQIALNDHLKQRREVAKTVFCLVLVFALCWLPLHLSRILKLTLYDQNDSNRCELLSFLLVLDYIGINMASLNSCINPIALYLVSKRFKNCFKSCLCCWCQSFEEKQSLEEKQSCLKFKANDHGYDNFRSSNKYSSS
Assay: Endothelin (ET) receptor binding assay, ETB ([125I]ET-3 alone, porcine lung plasma membrane)
Conditions: 10^-7 M of the test compound; specific ETB binding

{"COMPOUND": "COc1ccc(C[C@H](C(=O)N[C@@H](Cc2c[nH]c3ccccc23)C(=O)O)N(C)C(=O)c2cc(C)cc(C)c2)cc1", "inhibition at 0.1 µM": "59%"}
{"COMPOUND": "Cc1cc(C)cc(C(=O)N(C)C(C(=O)N[C@@H](Cc2c[nH]c3ccccc23)C(=O)O)C(c2ccccc2)c2ccccc2)c1 (stereo partly drawn)", "inhibition at 0.1 µM": "95%"}
{"COMPOUND": "Cc1cc(C)cc(C(=O)N(C)[C@H](Cc2ccc(-c3ccccc3)cc2)C(=O)NC(Cc2csc3ccccc23)C(=O)O)c1 (stereo partly drawn)", "inhibition at 0.1 µM": "87%"}
